Cited source for all entries: patent US12577311

Reported pKd values for a set of binders
- measurement.target: CAIX (UniProt Q16790 38-414)
pKd: −log10 of the molar value.

{"columns": ["binder", "pKd"],
 "data": [
  ["G119 (antibody, V domains shown) VH: QVQLVQSGGGLVQPGGSLRLSCAASGFPFSSYAMSWVRQAPGKGLEWVSAISANGGTTYYADSVKGRFTISRDNSKNTLYLQMNSLRAEDTAVYYCANNGNYRGAFDIWGQGTMVIVSS VL: QSVLTQPPSVSGAPGQRVTISCTGSSSNIGAGYDVHWYQQLPGTAPKLLIYGNTNRPSGVPDRFSGSKSGTSASLAIIGLQADDEADYYCQSYDSTLRVWMFGGGTKLTVLG", 8.83],
  ["G57 (antibody, V domains shown) VH: QVQLVQSGGGVVQPGRSLRLSCAASGFTFSSYGMHWVRQAPGKGLEWVAVISYDGSNKYYADSVKGRFTISRDNSKNTLYLQMNSLRAEDTAVYYCAREAPYSSSLDAFDIWGQGTMVTVSS VL: QSVLTQPPSVSGAPGQRVTISCTGSSSNIGRGYNVHWYQQLPGTAPKLLIYGNSNRPSGVPDRFSGSSSGNTASLTITGAQAEDEADYYCHSRDNNGHHIFGGGTKLTVLS", 8.37],
  ["G6 (antibody, V domains shown) VH: QVQLVQSGGGLVQPGGSLRLSCAASEFTFGTYAMTWVRQAPGKGLEWVSAVSGSGGSTYYADSVKGRFTISRDNSRNTLYLQMNSLRADDTAVYYCARGPVLRYGFDIWGQGTMVIVSS VL: QSVLTQPPSVSGAPGQRITISCTGSRSNIGADYDVHWYQQLPGTAPKLLIYANNNRPSGVPGRFSASKSGTSASLAISGLQAEDEADYYCQSYDSSLRAWVFGGGTKLAVLG", 7.59],
  ["G125 (antibody, V domains shown) VH: EVQLVESGGGVVQPGRSLRLSCAASGFTFSSYGMHWVRQAPGKGLEWVSAISGSGGSTYYADSVKGRFTISRDNAKNTLYLQMNSLRAEDTAVYYCARAAVTGGFDPWGQGTLVTVSS VL: QPGLTQPPSVSVAPGQTARITCGGDNIGRKSVHWYQQRPGQAPILVIRDDRDRPSGIPERFSGSSSVNTATLIISRVEAGDEADYYCQVWDSSSKHYVFGPGTKVTALG", 7.39],
  ["G45 (antibody, V domains shown) VH: QVQLVQSGGGLVRPGGSLRLSCAASGFPFSSYAMSWVRQAPGKGLEWVSAISANGGTTYYADSVKGRFTISRDNSKNTLYLQMNSLRAEDTAVYYCANNGNYRGAFDIWGQGTTVTVSS VL: QSVLTQPPSVSGAPGQRITISCTGSSSNIGAGYDVHWYQQVPGKAPKVVIYGNNNRPSGVPDRFSGSKSGASASLAITGLQTEDEADYYCQSYDKSLTWVFGGGTKVTVLG", 7.90],
  ["G10 (antibody, V domains shown) VH: QVQLVQSGGGLVQPGGSLRLSCAASGFPFSSYAMSWVRQAPGKGLEWVSAISANGGTTYYADSVKGRFTISRDNSKNTLYLQMNSLRAEDTAVYYCANNGNYRGAFDIWGQGTMVTVSS VL: QSVLTQPPSVSGAPGQRVTISCTGSSSNIGAGYDVHWYQQLPGTAPKLLIYGNSNRPSGVPDRFSGSKSGSSASLAITGLQAEDEAHYYCQSYDRSLSWVFGGGTKLTVLG", 8.79],
  ["G106 (antibody, V domains shown) VH: EVQLVQSGGGLVQPGGSLRLSCAASGFTFSSYAMSWVRQAPGKGLEWVSAISANGGTTYYADSVKGRFTISRDNSKNTLYLQMNSLRAEDTAVYYCANNGNYRGAFDIWGQGTTVTVSS VL: QSVLTQPPSVSGAPGQRVTISCTGSSSNIGAGFDVHWYQQLPGTAPRLLIYGNNNRPSGVPDRFSGSKSGTSASLAITGLQAEDETDYFCQSYDSSLSAWVFGGGTKVTVLR", 8.49],
  ["G9 (antibody, V domains shown) VH: QVQLQESGGGLVQPGGSLRLSCAASGFTFSSYAMSWVRQAPGKGLEWVSAISGSGGSTYYADSVKGRFTISRDNSKNTLYLQMNSLRAEDTAVYYCARSHSSGGFDYWGQGTLVTVSS VL: QSVLTQPPSVSGAPGQRVTISCTGSSSNIGRGYNVHWYQQLPGTAPKLLIYGNTNRPSGVPDRFSGSKSGTSASLAITGLQAEDEGDYYCQSYDSSLSAWVFGGGTKLTVLG", 7.00],
  ["G40 (antibody, V domains shown) VH: QVQLVQSGGGLVQPGGSLRLSCAASGFTFSSYAMSWVRQAPGKGLEWVSAISGSGGSTYYADSVKGRFTISRDNSKNTLYLQMNSLRAEDTAVYYCATYGDYGSLDYWGQGTLVTVSS VL: QSVLTQPPSVSGAPGQRVTISCTGSSSNIGAGYDVHWYQQLPGTAPKLLIYANNNRPSGVPDRFSGSKSGTSASLAITGLQAEDEADYYCQSYDSSLRAWVFGGGTKLAVLG", 7.66],
  ["G37 (antibody, V domains shown) VH: QVQLVQSGGGVVQPGGSLRLSCAASGFPFSSYAMSWVRQAPGKGLEWVSAISANGGTTYYADSVKGRFTISRDNSKNTLYLQMNSLRAEDTAVYYCANNGNYRGAFDIWGQGTMVTVSS VL: QSVLTQPPSVSGAPGQRITISCTGSRSNIGADYDVHWYQQLPGTAPKLLIYANNNRPSGVPDRFSGSKSGTSASLAITGLQAEDETDYFCQSYDSSLSAWVFGGGTKVTVLG", 8.72],
  ["G27 (antibody, V domains shown) VH: QVTLKESGGGVVQPGTSLRLSCAASGFTFSNYAMTWVRQAPGKGLEWVGLISYDGSVTHYTDSVKGRFTISRDNAKNSLYLQMNTLRADDTAVYYCARGSGYQEHWGQGTLVTVSS VL: LPVLTQPPSVSVAPGQTARITCGGNNIGSKSVEWYQQKPGQAPVLVIYYDSDRPSGIPERFSGSNSGNTATLTISRVEAGDEADYYCQVWDSSSDHHVVFGGGTKLTVLG", 7.60]
]}
